molecular target: Gonadotropin-releasing hormone receptor (Rattus norvegicus); experiment: In vitro inhibition of LH release was determined in rat pituitary cells at a dose of 0.1 ug of analogue and 1 ng of LHRH; assay type: functional, cell-based; settings: Pituitary gland cell
I'd be grateful if you could share measured Activity for these entries.
Quick one: just the number, no unit, thanks!

Which Activity value is on record for CC(=O)N[C@H](Cc1ccc2ccccc2c1)C(=O)N[C@@H](CO)C(=O)N[C@@H](Cc1ccc(O)cc1)C(=O)N[C@H](CCCCNC(=O)c1ccccn1)C(=O)N[C@@H](CC(C)C)C(=O)N[C@@H](CCCN=C(N)N)C(=O)N1CCC[C@H]1C(=O)N[C@H](C)C(N)=O ? 201

Which Activity value is on record for CC(C)C[C@H](NC(=O)C(Cc1ccc2ccccc2c1)NC(=O)[C@H](Cc1ccc(O)cc1)NC(=O)[C@H](CO)NC(=O)[C@H](Cc1cccnc1)NC(=O)[C@H](Cc1ccc(Cl)cc1)NC(=O)[C@@H]1CCC(=O)N1)C(=O)N[C@@H](CCCN=C(N)N)C(=O)N1CCC[C@H]1C(=O)N[C@H](C)C(N)=O (stereo in doubt) ? 158

Which Activity value is on record for CC(=O)NC(Cc1ccc2ccccc2c1)C(=O)N[C@@H](Cc1ccc(Cl)cc1)C(=O)N[C@@H](Cc1cccnc1)C(=O)N[C@@H](CO)C(=O)N[C@@H](Cc1ccc(O)cc1)C(=O)NC(Cc1ccc2ccccc2c1)C(=O)N[C@@H](CC(C)C)C(=O)N[C@@H](CCCN=C(N)N)C(=O)N1CCC[C@H]1C(=O)N[C@H](C)C(N)=O (stereo in doubt) ? 4

Which Activity value is on record for CCNC(=O)[C@@H]1CCCN1C(=O)C(CCCN=C(N)N)NC(=O)[C@H](CC(C)C)NC(=O)[C@H](CCCCNC(=O)c1ccccn1)NC(=O)C(CCCCNC(=O)c1ccccn1)NC(=O)[C@H](CO)NC(=O)[C@H](Cc1ccc2ccccc2c1)NC(C)=O (stereo partly drawn) ? 72

Which Activity value is on record for CC(=O)N[C@@H](Cc1ccc2ccccc2c1)C(=O)N[C@@H](CO)C(=O)N[C@@H](Cc1ccc(O)cc1)C(=O)N[C@@H](Cc1cccnc1)C(=O)N[C@@H](CC(C)C)C(=O)N[C@@H](CCCN=C(N)N)C(=O)N1CCC[C@H]1C(=O)N[C@H](C)C(N)=O ? 112

Which Activity value is on record for CC(=O)N[C@H](Cc1ccc2ccccc2c1)C(=O)N[C@@H](CO)C(=O)N[C@@H](Cc1ccc(O)cc1)C(=O)N[C@H](Cc1ccc2ccccc2c1)C(=O)N[C@@H](CC(C)C)C(=O)N[C@@H](CCCN=C(N)N)C(=O)N1CCC[C@H]1C(N)=O ? 74

Which Activity value is on record for CC(=O)N[C@H](Cc1ccc2ccccc2c1)C(=O)N[C@@H](CO)C(=O)N[C@@H](Cc1ccc(O)cc1)C(=O)N[C@H](Cc1ccc2ccccc2c1)C(=O)N[C@@H](CC(C)C)C(=O)N[C@@H](CCCN=C(N)N)C(=O)N1CCC[C@H]1C(=O)NCC(N)=O ? 157

Which Activity value is on record for CCNC(=O)[C@@H]1CCCN1C(=O)[C@H](CCCCNC(C)C)NC(=O)[C@H](CC(C)C)NC(=O)C(Cc1ccc2ccccc2c1)NC(=O)[C@H](Cc1ccc(O)cc1)NC(=O)[C@H](CO)NC(=O)C(Cc1ccc2ccccc2c1)NC(C)=O (stereo in doubt) ? 133

These measurements were taken from ChEMBL document CHEMBL1128487.
